Sourced from patent US8481540B2

Task for the reader: assign each of the following molecules its reported pIC50.
- Tested on: B cells in human blood
- run description: Inhibition of B cell activation in whole blood measured by CD69 expression
- Assay type: cell-based
- study conditions: CD69-positive, CD20-positive cells after anti-IgM stimulation, human whole blood, 20 hours, read-out: Human Whole Blood
One number for each entry, as −log10 of the molar value.

Worked cases, pIC50 given:
molecule	pIC50
CN1CCN(c2cnc(Nc3cc(-c4cccc(-n5ncc6cc(C(C)(C)C)cc(F)c6c5=O)c4CO)nn(C)c3=O)cn2)CC1	6.90
Cn1nc(-c2cccc(-n3ncc4cc(C(C)(C)C)cc(F)c4c3=O)c2CO)cc(Nc2ccc(C(=O)N3CCC(O)CC3)cn2)c1=O	7.39
CN1CCC(c2ccc(Nc3cc(-c4cccc(-n5ccc6cc(C(C)(C)C#N)cc(F)c6c5=O)c4CO)nn(C)c3=O)nc2)C1 (stereo in doubt)	6.31
CN(C)CC(C)(C)Oc1ccc(Nc2cc(-c3cccc(-n4ncc5cc(C(C)(C)C)cc(F)c5c4=O)c3CO)nn(C)c2=O)nc1	7.51
CN1CCC(c2ccc(Nc3cc(-c4cccc(-n5ccc6cc(C(C)(C)C#N)cc(F)c6c5=O)c4CO)nn(C)c3=O)nc2)CC1	7.49

For Cn1nc(-c2cccc(-n3ncc4cc(C(C)(C)C)cc(F)c4c3=O)c2CO)cc(Nc2ccc(C(=O)N3CCC(C)(O)CC3)cn2)c1=O the molecule record lists pIC50 as 6.96
